Where do the numbers come from? From patent US7851484B2.

Test system: SKM MF
assay-name: SKM MF AC1.4: ATPase screen of skeletal sarcomeric proteins with PK/LDH coupled enzyme system
Type: biochemical
measured-attribute: SKM MF AC1.4 (µM)

>  <given-smiles>
CCC(CC)n1c(O)nc2ncc(Br)cc21

>  <SKM MF AC1.4 [µM]>
0.9

$$$$

I: CCC(CC)n1c(=O)[nH]c2ncccc21
II: CCC(CC)n1c(O)nc2ncc(C)cc21
III: CCC(CC)n1c(O)nc2ncc(Cl)cc21
Inquiry: # ascending order, key=SKM MF AC1.4 Use the labels to give the requested order.
Reply text: III, II, I
(III: 0.82 µM, II: 5.7 µM, I: 19.2 µM)

----------
Test system: SKM MF
assay-name: SKM MF AC1.4: ATPase screen of skeletal sarcomeric proteins with PK/LDH coupled enzyme system
Format: biochemical
Parameters: unit not given here
run-conditions: median
measured-attribute: AC1.4 Median

>  <compound>
CC[C@@H](CCO)n1c(O)nc2ncc(Cl)c(I)c21

>  <AC1.4 Median>
37.2312

$$$$
>  <compound>
CCC(CC)n1c(O)nc2ncc(Cl)c(/C=N/OC(C)(C)C)c21

>  <AC1.4 Median>
1.8945

$$$$

P: CC[C@@H](C)n1c(O)nc2ncc(Cl)cc21
Q: COC(=O)c1c(Cl)cnc2nc(O)[nH]c12
R: OC[C@@H](C1CCCCC1)n1c(O)nc2ncc(Cl)cc21
S: CCC(CC)n1c(O)nc2ncc(Cl)c(C#N)c21
T: CCC(CC)n1c(O)nc2ncc(Cl)c(C)c21
Inquiry: # rank_down: sort by AC1.4 Median, max first Use the labels to give the requested order.
Reply text: R, P, T, Q, S
(R: 37.7104, P: 10.6839, T: 3.9463, Q: 1.7026, S: 1.0215)

I: CCC(CO)n1c(O)nc2ncc(Cl)cc21 (stereo not shown)
II: COCCCCn1c(O)nc2ncc(Cl)cc21
Inquiry: I need your help: which of the pair I , II has higher AC1.4 Median? Please indicate the selected item by its label.
Reply text: II

----------
System: SKM MF
assay-name: SKM MF AC1.4: ATPase screen of skeletal sarcomeric proteins with PK/LDH coupled enzyme system
Type: biochemical
Parameters: unit not given here
run-conditions: median
measured-attribute: AC1.4 Median

Reference set, count: 3
>  <compound>
CCC(CC)n1c(O)nc2ncc(F)cc21

>  <measured-attribute>
AC1.4 Median

>  <reading>
12.9347

$$$$
>  <compound>
CCOC(=O)CSSCc1c(Cl)cnc2nc(O)n(C(CC)CC)c12

>  <measured-attribute>
AC1.4 Median

>  <reading>
11.7273

$$$$
>  <compound>
CCC(CC)n1c(O)nc2ncc(SC)cc21

>  <measured-attribute>
AC1.4 Median

>  <reading>
13.7960

$$$$

I: CC(Cn1c(O)nc2ncc(Cl)cc21)c1ccccc1 (stereo not drawn)
II: C[C@H](c1ccccc1)n1c(O)nc2ncc(Cl)cc21
Inquiry: I need your help: which of the pair I , II has higher AC1.4 Median? Please indicate the selected item by its label.
Reply text: II
(II: 35.2255, I: 22.4532)

A: CCc1cnc2nc(O)n(C(CC)CC)c2c1
B: CC(C)(C)n1c(O)nc2ncc(Cl)cc21
Inquiry: Look at A and B . Which one has the lower recorded AC1.4 Median number? Please indicate the selected item by its label.
Reply text: B
(B: 9.8213, A: 41.9678)

I: C[C@@H](c1ccccc1)n1c(O)nc2ncc(Cl)cc21
II: CCC(CC(C)C)n1c(O)nc2ncc(Cl)cc21 (stereo not drawn)
Inquiry: Look at I and II . Which one has the lower recorded AC1.4 Median number? Please indicate the selected item by its label.
Reply text: II
(II: 2.6422, I: 31.7670)

I: CC(C)CC(C)n1c(O)nc2ncc(Cl)cc21 (stereo not drawn)
II: Oc1nc2ncc(Cl)cc2n1[C@H](Cc1ccccn1)CN1CCOCC1
Inquiry: Look at I and II . Which one has the lower recorded AC1.4 Median number? Please indicate the selected item by its label.
Reply text: I
